Hello, the source for this data is patent US9365502B2, in case you need it.

Listed next: entries and their corresponding Oocyte electrophysiology 1.0 μM (ratio of currents in presence/absence of compound).
target: rat α1β2γ2L type GABAA receptors expressed in Xenopus laevis oocytes (Rattus norvegicus (Rat), UniProt P62813+P63138, INS375LLRMFSFK); test: Potentiation of GABA-mediated chloride currents, oocyte electrophysiology; format: cell-based; conditions: 1.0 μM compound, 2 μM GABA, ± SEM, N>=4
// print number alone

Some compounds with recorded Oocyte electrophysiology 1.0 μM (ratio of currents in presence/absence of compound):
- compound: "C[C@]12C[C@H]3CCC4C[C@@H](O)CC[C@H]4[C@@H]3C[C@@H]1CCC2=O (some centres unmarked)"
  measured value: 1.22
- compound: "C[C@@]12CC3CCC4C[C@H](O)CCC4C3CC1CC[C@H]2C#N (some centres unmarked)"
  measured value: 1.02
- compound: "C[C@@]12CC3CC[C@H]4C[C@H](O)CCC4C3CC1CCC2=O (some centres unmarked)"
  measured value: 1.50
- compound: "C[C@@]12CC[C@@H](O)C[C@@H]1CC[C@H]1C[C@@]3(C)[C@H](CC[C@@]34CO4)C[C@@H]12"
  measured value: 9.59
- compound: "C[C@]12C[C@H]3CC[C@@H]4C[C@@H](O)CC[C@H]4[C@@H]3C[C@@H]1CC/C2=C\\C#N"
  measured value: 3.21

stdin: Looking for the measured Oocyte electrophysiology 1.0 μM (ratio of currents in presence/absence of compound) of C[C@@]12CC[C@H](O)C[C@@H]1CC[C@@H]1C[C@]3(C)C(=O)CCC3C[C@H]12 (some centres unmarked) , can you help?
stdout: 1.03

stdin: # lookup: Oocyte electrophysiology 1.0 μM (ratio of currents in presence/absence of compound) of `C[C@]12C[C@H]3CC[C@@H]4C[C@@H](O)CC[C@H]4[C@@H]3C[C@@H]1CC/C2=C/C#N`
stdout: 3.93

stdin: # input compound: `C[C@@]12C[C@@H]3CC[C@@H]4C[C@H](O)CC[C@@H]4[C@H]3C[C@H]1CCC2=O` ; wanted: its Oocyte electrophysiology 1.0 μM (ratio of currents in presence/absence of compound)
stdout: 1.02

###

Biological target: rat α1β2γ2L type GABAA receptors expressed in Xenopus laevis oocytes (Rattus norvegicus (Rat), UniProt P62813+P63138, INS375LLRMFSFK)
Assay: Potentiation of GABA-mediated chloride currents, oocyte electrophysiology
Format: cell-based
Conditions: 10 μM compound in the absence of GABA, ± SEM
Experimental: The compounds of the present disclosure were evaluated for the ability to potentiate chloride currents mediated by 2 μM GABA at rat α1β2γ2L type GABAA receptors expressed in Xenopus laevis oocytes and the results are shown in Table 2. The GABA concentration used for the control response was 2 μM. Each compound was evaluated on at least four different oocytes at the concentrations indicated, and the results reported are the ratio of currents measured in the presence/absence of added compound. […]
We begin with a simple list: items and their reported Oocyte electrophysiology (gating) 10 μM (ratio of compound only current/2 μM GABA current).
Lab note: jot the number down without any unit.

- molecule: "CC(=O)[C@@H]1CC[C@@H]2C[C@H]3[C@@H](CC[C@H]4C[C@H](O)CC[C@@H]43)C[C@]21C"
  measured value: 0.0
- molecule: "C[C@]12CC(=O)CC1CC1C(CCC3C[C@H](O)CCC31)C2 (some centres unmarked)"
  measured value: 0.01
- molecule: "C[C@@]12CC[C@H](O)C[C@H]1CC[C@@H]1C[C@]3(C)C(C#N)=CCC3CC12 (some centres unmarked)"
  measured value: 0.16

stdin: Recorded Oocyte electrophysiology (gating) 10 μM (ratio of compound only current/2 μM GABA current) of `C[C@]12C[C@H]3CC[C@@H]4C[C@@H](O)CC[C@H]4[C@@H]3C[C@@H]1CC/C2=C/C#N` , please.
stdout: 0.02

stdin: Fill blank: measured Oocyte electrophysiology (gating) 10 μM (ratio of compound only current/2 μM GABA current) of the molecule CC(=O)[C@H]1CCC2CC3C(CCC4C[C@H](O)CCC43)C[C@@]21C (some centres unmarked) is ____.
stdout: 0.03

stdin: Entry `C[C@]12C[C@H]3CC[C@@H]4C[C@@H](O)CC[C@H]4[C@@H]3C[C@@H]1CC[C@@H]2[N+](=O)[O-]` has what Oocyte electrophysiology (gating) 10 μM (ratio of compound only current/2 μM GABA current)?
stdout: 0.02

stdin: Query (molecule): C[C@@]12CC[C@H](O)C[C@@H]1CC[C@@H]1C[C@]3(C)C(=O)CCC3C[C@H]12 (some centres unmarked) ; field requested: Oocyte electrophysiology (gating) 10 μM (ratio of compound only current/2 μM GABA current)
stdout: 0.1

stdin: Please report the recorded Oocyte electrophysiology (gating) 10 μM (ratio of compound only current/2 μM GABA current) for `C[C@@]12C[C@@H]3CC[C@@H]4C[C@H](O)CC[C@@H]4[C@H]3C[C@H]1CCC2=O` .
stdout: 0.08

###

In this section we review reported melting point values for a set of compounds.

Consider the reported melting point for these compounds:
- smiles record: "C[C@]12C[C@H]3CC[C@@H]4C[C@@H](O)CC[C@H]4[C@@H]3C[C@@H]1CC[C@@H]2C#N"
  melting point: "162 to 164 °C"
- smiles record: "C[C@]12CC(=O)C[C@@H]1C[C@H]1[C@@H](CC[C@H]3C[C@H](O)CC[C@@H]31)C2"
  melting point: "165 to 166 °C"
- smiles record: "C[C@@]12C[C@@H]3CC[C@H]4C[C@H](O)CC[C@@H]4[C@H]3C[C@H]1CC[C@H]2C#N"
  melting point: "163 to 165 °C"
- smiles record: "C[C@]12C[C@H]3CC[C@@H]4C[C@@H](O)CC[C@@]4(C)[C@@H]3C[C@@H]1CC[C@@H]2C#N"
  melting point: "145 to 147 °C"
- smiles record: "C[C@@]12C[C@@H]3CC[C@H]4C[C@H](O)CC[C@@H]4[C@H]3C[C@H]1CC[C@]21CO1"
  melting point: "165 to 167 °C"

stdin: Suppose we examine the compound `C[C@]12C[C@H]3CC[C@H]4C[C@@H](O)CC[C@H]4[C@@H]3C[C@@H]1CCC2=O` ; what melting point value has been reported?
stdout: 175 to 177 °C

stdin: Find the recorded melting point belonging to `C[C@@]12C[C@@H]3CC[C@@H]4C[C@H](O)CC[C@@H]4[C@H]3C[C@H]1CC[C@]21CO1` and report it.
stdout: 163 to 165 °C

###

Biological target: picrotoxin binding site on GABAA receptors
Experiment: [35S]-TBPS displacement (inhibition of [35S]-TBPS binding)
Conditions: mean ± SEM, duplicate experiments performed in triplicate
Experimental: The IC50 values for non-competitive displacers of [^35S]-TBPS from the picrotoxin binding site on GABAA receptors are reported in Table 1. Results presented are from duplicate experiments performed in triplicate. Error limits are calculated as standard error of the mean. […]
recorded endpoint: log10(IC50) (log10 of the value in nM)
For clarity, the numbers are log10 values of IC50 expressed in nM.

Reference set (4 entries):
- compound: "C[C@]12C[C@H]3CC[C@@H]4C[C@@H](O)CCC4C3CC1CC[C@@]21CO1 (some centres unmarked) [MQ-37]"
  measured value: 1.66
- compound: "C[C@]12C[C@H]3CC[C@@H]4C[C@@H](O)CC[C@H]4[C@@H]3C[C@@H]1CC/C2=C\\C#N [MQ-32]"
  measured value: 2.17
- compound: "C[C@@]12CC3CCC4C[C@H](O)CCC4C3CC1CC[C@H]2C#N (some centres unmarked) [MQ-49]"
  measured value: 3.20
- compound: "C[C@@]12CC[C@H](O)C[C@H]1CC[C@@H]1C[C@@]3(C)C(CC[C@@H]3C#N)CC12 (some centres unmarked) [MQ-87]"
  measured value: 1.15

stdin: Notebook: pull reported log10(IC50) for picrotoxin binding site on GABAA receptors, entry C[C@@]12CC[C@@H](O)C[C@@H]1CC[C@H]1C[C@@]3(C)[C@H](CC[C@@]34CO4)C[C@@H]12 [MQ-85]
stdout: 1.46

###

Reported Oocyte electrophysiology 10 μM (ratio of currents in presence/absence of compound) by item:
molecular target: rat α1β2γ2L type GABAA receptors expressed in Xenopus laevis oocytes (Rattus norvegicus (Rat), UniProt P62813+P63138, INS375LLRMFSFK); assay: Potentiation of GABA-mediated chloride currents, oocyte electrophysiology; assay type: cell-based; conditions: 10 μM compound, 2 μM GABA, ± SEM, N>=4
# print the numeric value only

- molecule: "C[C@]12CC(=O)CC1CC1C(CCC3C[C@H](O)CCC31)C2 (stereo partly drawn) [MQ-48]"
  measured value: 7.10

stdin: What value of Oocyte electrophysiology 10 μM (ratio of currents in presence/absence of compound) has been reported for the following molecule? C[C@]12C[C@H]3CCC4C[C@@H](O)CC[C@H]4[C@@H]3C[C@@H]1CCC2=O (stereo partly drawn) [MQ-36]
stdout: 3.81

stdin: Form field: reported Oocyte electrophysiology 10 μM (ratio of currents in presence/absence of compound) of C[C@]12C[C@H]3CC[C@@H]4C[C@@H](O)CC[C@H]4[C@@H]3C[C@@H]1CC[C@@H]2C#N [MQ-38]
stdout: 12.50
